FYI, the data here is from PubChem BioAssay.

test system: Inhibin beta A chain (activin A); experiment: INHBA (activin A) binders on microarrays, primary screen, biochemical, small-molecule microarray, 635 nm fluorescence scan (AID 1107); conditions: small-molecule microarray binding, higher = more signal;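 also: mouse activin A protein probed at 4.33 µg/mL on printed slides; score merges bound-protein fluorescence near 667 nm with spot signal-to-noise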
Can you tell me composite z-score for the items I'm about to list?

Which composite z-score is reported for this molecule? COC(=O)[C@@H]1N=C(c2ccc(OCCCO)cc2)O[C@@H]1c1ccccc1CN=[N+]=[N-]
0.778

Which composite z-score is reported for this molecule? C=C(CC1([C@@H](NP(=O)(c2ccccc2)c2ccccc2)[C@H]2C[C@@H]2CCN(C(=O)OCC)S(=O)(=O)c2ccc(C)cc2)CC1)c1ccccc1
1.17

Which composite z-score is reported for this molecule? C[C@@H](OCc1ccccc1)C1NC(=O)[C@@]23C(=O)N[C@@H](Cc4ccccc4)C2[C@H](C)[C@@]2(C)O[C@H]2C3/C=C/C/C=C\CNC(=O)[C@H](Cc2ccccc2)NC1=O (some centres undefined)
1.08

Which composite z-score is reported for this molecule? C[C@H]1NC(=O)C([C@@H](C)OCc2ccccc2)NC(=O)[C@@]23C(=O)N[C@@H](Cc4ccccc4)C2[C@H](C)[C@@]2(C)O[C@H]2C3/C=C/C/C=C\CNC1=O (some centres undefined)
1.43

Which composite z-score is reported for this molecule? COC(=O)[C@@]1(Cc2ccc(F)cc2)[C@H]2c3cc(C(=O)N(C)C)n(CCO)c3C[C@H]2CN1C(=O)c1ccccc1
0.495

Batch of 6 molecules: report composite z-score for each.
1. CC(C)(C)N1CC=CC23O[C@@H]4/C=C\CCCOC(=O)C4[C@H]2C(=O)N(CCCCCCO)[C@@H]3C1=O (some centres undefined)
2. CC(C)CNC(=O)[C@@H]1c2ccccc2C(=O)N(Cc2ccccc2)[C@H]1c1ccc(CO)cc1
3. C=CC[C@@]1(C(=O)O)N=C(c2ccc(OCCCO)cc2)O[C@@H]1c1ccccc1CN=[N+]=[N-]
4. CN(C)CCCC[C@@H]1NC(=O)[C@@H]2C[C@H](C(=O)NCc3ccc(F)cc3)[C@H](c3ccc(O)cc3)N2C1=O
5. CCOC(=O)C[C@H]1[C@H](OC(=O)c2ccc(-c3ccccc3)cc2)[C@@H](NC(=O)c2ccc3ccccc3c2)c2cc(OCCCO)ccc2N1C(=O)c1ccccc1
6. COC(=O)C1=CC(CCCO)=CC(C2CC2)N(Cc2cccc(OC(F)(F)F)c2)C=C1C(=O)OC (centres undefined)

0.705
-0.217
1.15
-1.43
-0.121
0.674

Batch of 6 molecules: report composite z-score for each.
1. C=CCC(OC(C)=O)[C@@H]1[C@@H](N(Cc2cc3ccccc3o2)C(=O)Cc2ccc(OC)cc2)c2cc(OCCCO)ccc2N1C(=O)Cc1ccc(OC)cc1 (some centres undefined)
2. NC(=O)[C@@]1(CCS(=O)(=O)c2ccccc2)COC(c2ccc(OCCCO)cc2)=N1
3. CC(C)C[C@@H]1NC(=O)[C@@H]2C[C@H](C(=O)NCCCC[N+](C)(C)C)[C@H](c3ccc(O)cc3)N2C1=O
4. NC(=O)N1C(=O)C2C(C1=O)C1C=C(CCCO)C2C(c2ccc(CN3CCCC3)cc2)N1Cc1cccc(OC(F)(F)F)c1 (centres undefined)
5. COc1ccc([Si](C)(C)[C@H]2[C@H](CCO)O[C@@]3(C(=O)N(Cc4ccc(N5CCOC5=O)cc4)c4ccccc43)[C@@H]2C)cc1
6. CC(C)C(=C=CC[C@@H](O)c1cccc(OCCO)c1)CCO

1: 1.3; 2: 1.21; 3: -0.531; 4: 1.59; 5: 0.416; 6: 0.677

Batch of 5 molecules: report composite z-score for each.
1. C/C=C/CN(C(=O)C#Cc1ccccc1)[C@H](CO[Si](C)(C)C(C)(C)C)c1ccccc1
2. CC(C)C[C@@H]1NC(=O)[C@H]2C[C@@H](C(=O)NCCCCCCNC(=O)CS)[C@@H](c3ccc(O)cc3)N2C1=O
3. COc1ccc([Si](C)(C)[C@H]2[C@H](CCO)O[C@@]3(C(=O)N(Cc4ccccc4)c4ccc(N(C=O)c5ccccc5)cc43)[C@@H]2C)cc1
4. Cc1c(NC(=O)/C(C#N)=C/c2ccc(Cl)cc2)c(=O)n(-c2ccccc2)n1C
5. CCCCC(O)C1C=CC2C(=O)NC(=O)C2N1Nc1ccccn1 (centres undefined)

1: 1.19; 2: -1.17; 3: 0.2; 4: 0.311; 5: 0.555
